As shown below, each of these compounds has a reported pIC50 value.
Molecular target: recombinant human cGAS (aa147-522) (Homo sapiens, UniProt Q8N884)
Construct: recombinant human cGAS (aa147-522); His6-SUMO (cleaved yes); made in house; host or cells: E. coli BL21/pLys
Sequence (Q8N884 147-522): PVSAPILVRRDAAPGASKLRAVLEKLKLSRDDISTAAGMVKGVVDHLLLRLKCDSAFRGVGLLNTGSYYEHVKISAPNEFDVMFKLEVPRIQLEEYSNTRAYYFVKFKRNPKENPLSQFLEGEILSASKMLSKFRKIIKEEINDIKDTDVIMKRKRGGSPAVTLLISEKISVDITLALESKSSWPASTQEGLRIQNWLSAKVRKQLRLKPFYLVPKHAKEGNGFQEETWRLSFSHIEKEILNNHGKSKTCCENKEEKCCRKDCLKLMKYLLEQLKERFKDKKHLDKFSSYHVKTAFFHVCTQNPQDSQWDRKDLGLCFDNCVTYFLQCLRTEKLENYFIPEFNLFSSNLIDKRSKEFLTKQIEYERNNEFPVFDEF
Assay: In vitro inhibition assay of cGAS activity (ATP consumption, KinaseGlo Max)
Assay type: biochemical
Details: Table 3, read-out: cGAS Inhibition Results IC50
pIC50: −log10 of the molar value.

// worked examples, pIC50 included
[[record]]
compound = "CN(CCOCCC(=O)O)c1cc(-n2ccnc2)c2ccc(Cl)c(Cl)c2n1"
test_readout = "pIC50"
result = "> 5.70"

[[record]]
compound = "O=C(O)C12CC1CCN2c1cc(-n2ccnc2)c2ccc(Cl)c(Cl)c2n1 (stereo not shown)"
test_readout = "pIC50"
result = "4.52 to 5.70"

[[record]]
compound = "CN(CC(=O)NCCC(N)=O)c1cc(-n2ccnc2)c2ccc(Cl)c(Cl)c2n1"
test_readout = "pIC50"
result = "4.52 to 5.70"

[[record]]
compound = "O=C(O)[C@@H]1[C@H](CO)CCN1c1cc(-n2ccnc2)c2ccc(Cl)c(Cl)c2n1 (racemic)"
test_readout = "pIC50"
result = "> 5.70"

[[record]]
compound = "CC(CC(=O)O)OC[C@@H]1CCCN1c1cc(-n2ccnc2)c2ccc(Cl)c(Cl)c2n1 (stereo partly shown)"
test_readout = "pIC50"
result = "> 5.70"

[[record]]
compound = "CN(CCOc1ccccc1C(=O)O)c1cc(-n2ccnc2)c2ccc(Cl)c(Cl)c2n1"
test_readout = "pIC50"
result = "> 5.70"


Please report the measured pIC50 for CCOC(=O)[C@@H]1[C@@H](O)[C@H](C)CN1c1cc(-n2ccnc2)c2ccc(Cl)c(Cl)c2n1
4.52 to 5.70

Note pIC50 for the compound shown: O=C(O)CCOCC[C@@H]1CCCN1c1cc(-n2ccnc2)c2ccc(Cl)c(Cl)c2n1
> 5.70

Output pIC50 of O=C1NCC2CCC1N2c1cc(-n2ccnc2)c2ccc(Cl)c(Cl)c2n1 (stereo not shown)
> 5.70

Name the recorded pIC50 of the compound listed here: O=C(O)CCOCC1(CNc2cc(-n3ccnc3)c3ccc(Cl)c(Cl)c3n2)CC1
> 5.70

Answer with the recorded pIC50 for the compound listed here: C[C@H]1CCN(c2cc(-n3ccnc3)c3ccc(Cl)c(Cl)c3n2)[C@@H]1C(=O)O
> 5.70

Tell me its pIC50 given CC(C)[C@H](NC(=O)C[C@@H]1CCCN1c1cc(-n2ccnc2)c2ccc(Cl)c(Cl)c2n1)C(=O)O as the entry.
> 5.70

Measured values drawn from patent US11873291B2 for this set.
